Listed below: Decrease relative to N-7113 (decapping rate) values for each entry.
- tested on: DCP2 enzyme (Schizosaccharomyces pombe)
- Construct: purchased New England Biolabs
- Sequence (O13828 1-243 limits assumed): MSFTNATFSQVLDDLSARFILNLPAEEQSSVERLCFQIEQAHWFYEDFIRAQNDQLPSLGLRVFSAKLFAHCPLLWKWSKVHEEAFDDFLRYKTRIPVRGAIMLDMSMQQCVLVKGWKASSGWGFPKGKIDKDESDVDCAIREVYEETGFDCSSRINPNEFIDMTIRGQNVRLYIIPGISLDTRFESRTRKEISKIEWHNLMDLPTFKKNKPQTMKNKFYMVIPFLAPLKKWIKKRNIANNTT
- Sequence (Q9P805 whole entry partner): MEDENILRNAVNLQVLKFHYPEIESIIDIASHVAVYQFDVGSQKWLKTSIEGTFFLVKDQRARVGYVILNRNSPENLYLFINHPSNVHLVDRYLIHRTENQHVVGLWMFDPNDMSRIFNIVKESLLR
- Sequence (Q10108 155-180 partner limits assumed): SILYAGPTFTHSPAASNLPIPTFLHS
- protocol description: Decapping enzyme stability test
- Type: biochemical
- applied conditions: relative to N-7113
measurement label: Decrease relative to N-7113 (decapping rate) (%)

INSERT INTO results (compound, experimental_result) VALUES
  ('CO[C@@H]1[C@H](OP(=O)(O)OC[C@H]2O[C@@H](n3cnc4c(=O)[nH]c(N)nc43)[C@H](O)[C@@H]2O)[C@@H](COP(=O)(O)OP(=O)(O)OP(=O)(O)OC[C@H]2OC([n+]3cn(C)c4c(=O)[nH]c(N)nc43)[C@H](O)[C@@H](O)[C@@H]2O)O[C@H]1n1cnc2c(N)ncnc21 (stereo partly drawn)', 11.4),
  ('CCO[C@@H]1[C@H](OP(=O)(O)OC[C@H]2O[C@@H](n3cnc4c(=O)[nH]c(N)nc43)[C@H](O)[C@@H]2O)[C@@H](COP(=O)(O)OP(=O)(O)OP(=O)(O)OC[C@H]2O[C@@H]([n+]3cn(C)c4c(=O)[nH]c(N)nc43)[C@H](O)[C@@H]2O)O[C@H]1n1cnc2c(N)ncnc21 [CAP-2′O-ethyl, reference compound]', 15.5),
  ('CCN(CC)C(=O)[C@H]1[C@@H](O)[C@H]([n+]2cn(C)c3c(=O)[nH]c(N)nc32)O[C@@H]1COP(=O)(O)OP(=O)(O)OP(=O)(O)OC[C@H]1O[C@@H](n2cnc3c(N)ncnc32)[C@H](OC)[C@@H]1OP(=O)(O)OC[C@H]1O[C@@H](n2cnc3c(=O)[nH]c(N)nc32)[C@H](O)[C@@H]1O', 32.3);

Source: patent US12576099B2
